Biological target: T1, Human GAL3 protein (TrueBinding, QCB200349 / QCB200352; R&D Systems, 8259-GA) (human, UniProt P17931 2-250)
T1 construct: also called human galectin-3
T1 sequence (P17931 2-250 limits assumed): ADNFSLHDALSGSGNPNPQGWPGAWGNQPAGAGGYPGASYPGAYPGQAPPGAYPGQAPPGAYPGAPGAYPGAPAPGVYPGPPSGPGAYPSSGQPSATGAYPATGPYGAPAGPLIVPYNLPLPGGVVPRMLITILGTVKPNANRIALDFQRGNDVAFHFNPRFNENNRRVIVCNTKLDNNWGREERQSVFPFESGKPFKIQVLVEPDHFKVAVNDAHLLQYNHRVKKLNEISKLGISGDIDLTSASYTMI
Assay: blocking ELISA (GAL3 coated; antibody + biotinylated ITGb3)
Each record here notes measured percent blockade of GAL3-ITGb3 interaction.
Value Type: percent blockade of GAL3-ITGb3 interaction

Binder	Reported
F846C.1H12 (antibody, V domains shown, also called 846.1H12) VH: QIQLVQSGPELKKPGETVKISCKASGYTFTNFGMNWVKQAPGKGLKWMGWINTYTGEPSYADDFKGRFAFSLETSASTAYLQINNLKNEDIATYFCARWGGYAGDYYAMDYWGQGTSVTVSS VL: NIMMTQSPSSLAVSAGQKVTMSCKSSQSVLYSSSQKNYLAWYQQKPGQSPKLLIYWASTRESGVPDRFSGSGSGTDFTLTISSVQPEDLAVYYCHQYLSSLTFGAGTKLELKR	> 90%
F847.14H4 (847.14H4) (antibody, V domains shown, anti-Gal3 antibody) VH: QIQLVQSGPELTKPGETVKISCKASGYTFTDYGMNWVRQAPGETLKWMGWINTYTGEPTYADDFKGRFAFSLESSASTAYLQINNLKNEDVATYFCARYPMDYWGQGTSVTVSS VL: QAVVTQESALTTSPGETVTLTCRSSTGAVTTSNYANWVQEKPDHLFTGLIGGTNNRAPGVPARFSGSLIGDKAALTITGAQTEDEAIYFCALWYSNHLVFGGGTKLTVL	< 10%
IMT006 (TB006) (antibody, V domains shown, anti-Gal3 antibody) VH: QVQLVQSGAEVKKPGASVKVSCKASGYSFTNYYMHWVRQAPGQRLEWMGWIYPGSGNTNYNEKFQGRVTITADTSASTAYMELSSLRSEDTAVYYCSTAPGGFDVWGQGTTVTVSS VL: DIVMTQTPLSLSVTPGQPASISCKSSKSLLHSDGITYLYWYLQKPGQSPQLLIYRMSNLASGVPDRFSGSGSGTDFTLKISRVEAEDVGVYYCAQMLEFPLTFGQGTKLEIK	> 90%
12G5.D7 (antibody, V domains shown) VH: QVQLKQSGAELVRPGASVKLSCKASGYTFTDYYINWVKQRPGQGLEWIARIYPGTGNTDYNEKFKGRATLTAEKSSSTAYMQLSSLTSEDSAVYFCARFAYYYGSGGYFDYWGHGTTLTVSS VL: DILMTQSPSSMSVSLGDTVSITCHASQGINSNMGWLQQKPGKSFKGLIYHATNLEDGVPSRFSGSGSGADYSLTISSLESEDFADYYCVQYAQFPPTFGSGTKLEIK	< 10%
F846C.2H3 (antibody, V domains shown, also called 846.2H3) VH: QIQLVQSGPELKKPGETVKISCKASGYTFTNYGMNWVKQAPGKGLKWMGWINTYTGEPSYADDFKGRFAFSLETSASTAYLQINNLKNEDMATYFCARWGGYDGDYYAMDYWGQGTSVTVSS VL: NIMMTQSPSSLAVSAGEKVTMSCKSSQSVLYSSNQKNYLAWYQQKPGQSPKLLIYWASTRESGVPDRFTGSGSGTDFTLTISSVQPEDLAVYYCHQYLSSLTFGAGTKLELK	> 90%

Data credit: patent US20230094463A1
